- TESTED ON: glucagon receptor (human, UniProt P47871 26-477)
- Sequence (P47871 26-477): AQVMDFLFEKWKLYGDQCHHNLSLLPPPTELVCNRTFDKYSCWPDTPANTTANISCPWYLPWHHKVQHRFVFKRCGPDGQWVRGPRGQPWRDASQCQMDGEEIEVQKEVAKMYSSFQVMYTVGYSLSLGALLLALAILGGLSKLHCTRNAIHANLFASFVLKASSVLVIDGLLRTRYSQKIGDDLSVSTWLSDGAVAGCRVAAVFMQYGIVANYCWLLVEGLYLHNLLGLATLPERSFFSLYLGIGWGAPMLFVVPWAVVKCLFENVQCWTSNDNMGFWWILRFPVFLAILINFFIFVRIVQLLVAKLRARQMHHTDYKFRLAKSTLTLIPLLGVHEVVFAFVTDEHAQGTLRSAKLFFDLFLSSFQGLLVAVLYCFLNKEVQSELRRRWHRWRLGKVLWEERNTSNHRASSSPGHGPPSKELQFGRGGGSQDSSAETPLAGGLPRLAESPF
- ASSAY: cell-based or functional assay
No end group written: not given here.
PROPERTY MEASURED: EC50 (cAMP luciferase reporter) (nM)
Quick reminder: number only, in nM, skip the unit.

Solved cases below.
[[record]]
binder = "HSQGTFTSDYSKYLDEKRAKEFVQWLMNT-NH2 (not fully specified; also: further groups not given here) [Glucagon Analog 65]"
property_measured = "EC50 (cAMP luciferase reporter)"
data_value = 0.053

[[record]]
binder = "HSQGTFTSDYSKYLDERRAKEFVQWLMNT-NH2 (not fully specified; also: further groups not given here) [Glucagon Analog 68]"
property_measured = "EC50 (cAMP luciferase reporter)"
data_value = 0.068

[[record]]
binder = "HSQGTFTSDYSKYLDERRAKDFVQWLMNT-NH2 (not fully specified; also: further groups not given here) [Glucagon Analog 67]"
property_measured = "EC50 (cAMP luciferase reporter)"
data_value = 0.077


Below: the item to evaluate.
-- ask Fill in reported EC50 (cAMP luciferase reporter) for this entry: HSQGTFTSDYSKYLDEKRAKEFVCWLLDGGPSSGAPPPS-NH2 (not fully specified; also: further groups not given here) [Glucagon Analog 61]
-- reply 0.017

Hey, just so you know, these numbers are from patent US20120288511A1.
